system: MDA-MB-231 breast; assay: NCI-60 one-dose screen, 48 h; details: 10 µM unless noted
Compounds without any hit were thinned out: in the full panel of roughly 83,000, 20% have a hit. Calls of active or inactive are those of the source. How the source made its calls: active means growth percent below 10; inactive means the rest.
Possible outcomes: 1 (yes) = active, 0 (no) = inactive

>  <COMPOUND>
O=S(=O)(NCCNc1nccc(-c2c(-c3ccc(F)c(O)c3)nc3sccn23)n1)c1ccc(Cl)cc1

>  <CATEGORY>
0 (no)

$$$$
>  <COMPOUND>
OC1CSSC1Cn1cnc2c(Nc3ccc(OCc4cccc(F)c4)c(Cl)c3)ncnc21 (centres undefined)

>  <CATEGORY>
1 (yes)

$$$$
>  <COMPOUND>
O=c1oc2c(cnc3ccccc32)cc1-c1cccc(Cl)c1

>  <CATEGORY>
0 (no)

$$$$
>  <COMPOUND>
Cc1nc([P+](c2ccccc2)(c2ccccc2)c2ccccc2)c(N2CCCCC2)o1

>  <CATEGORY>
0 (no)

$$$$
>  <COMPOUND>
COc1ccc(-c2cn(Cc3cc4ccccc4s3)nn2)cc1OCCN1CCCCC1

>  <CATEGORY>
0 (no)

$$$$
>  <COMPOUND>
COc1cc(O)c2c(=O)c3c(CC=C(C)C)cc(OC)c(O)c3oc2c1

>  <CATEGORY>
0 (no)

$$$$
>  <COMPOUND>
O=c1cc(-c2ccccc2)nc(SCc2nc3cc(Cl)c(Cl)cc3[nH]2)[nH]1

>  <CATEGORY>
0 (no)

$$$$
>  <COMPOUND>
Nc1ncnc2c1N=C(c1ccc(Cl)cc1)CC(c1cccc(Nc3ccnc4cc(Cl)ccc34)c1)N2 (centres undefined)

>  <CATEGORY>
0 (no)

$$$$
>  <COMPOUND>
COc1cc(N2C(=O)[C@H](Cl)C2c2ccc(SC)cc2)cc(OC)c1OC (some centres undefined)

>  <CATEGORY>
0 (no)

$$$$
>  <COMPOUND>
COc1cc(/C=C/c2cn[nH]c2-c2ccc(C)cc2)cc(OC)c1OC

>  <CATEGORY>
0 (no)

$$$$
>  <COMPOUND>
O=C1c2cccnc2C(=O)c2c1c(C(=O)OCCc1ccccn1)c1ccccn21

>  <CATEGORY>
1 (yes)

$$$$
>  <COMPOUND>
CCN(CC)C(=O)C1=C(C)NC(=O)NC1c1ccc2c(c1)OCO2 (centres undefined)

>  <CATEGORY>
0 (no)

$$$$
>  <COMPOUND>
COc1ccc(/C=N/NC(=O)Cn2c(-c3ccc(S(C)(=O)=O)cc3)nc3ccccc32)cc1

>  <CATEGORY>
0 (no)

$$$$
>  <COMPOUND>
COc1cc2c(cc1-c1c(C)noc1C)ncc1nc(CN3CCOCC3)n([C@H](C)COC(F)F)c12

>  <CATEGORY>
0 (no)

$$$$
>  <COMPOUND>
Cc1ccc(-c2nc(SCC(=O)N3CCN(c4cc5c(cc4F)c(=O)c(C(=O)O)cn5C4CC4)CC3)nc(Cl)c2C#N)cc1

>  <CATEGORY>
0 (no)

$$$$
>  <COMPOUND>
O=[N+]([O-])c1c(O)c(Cl)cc(Cl)c1Cl

>  <CATEGORY>
0 (no)

$$$$
>  <COMPOUND>
O=C(CSc1nnnn1-c1ccccc1)Nc1ccc(Oc2ccccc2)cc1

>  <CATEGORY>
0 (no)

$$$$
>  <COMPOUND>
CCOc1ccc(/C=C/C(=O)c2cccc(OCCCOc3cccc(C(=O)/C=C/c4ccc(OCC)cc4)c3)c2)cc1

>  <CATEGORY>
0 (no)

$$$$
>  <COMPOUND>
COc1ccc(-c2cc(C(=O)N3N=C(c4ccc(N)cc4)CC3c3ccc(Cl)cc3)c3cc(OC)ccc3n2)cc1 (centres undefined)

>  <CATEGORY>
0 (no)

$$$$
>  <COMPOUND>
O=C1CCCCN1c1ccc(C2=NCCCN2)cc1

>  <CATEGORY>
0 (no)

$$$$
>  <COMPOUND>
Nc1ncnc2c1N=C(c1ccc(F)cc1)CC(c1cccc(Nc3ccnc4cc(Cl)ccc34)c1)N2 (centres undefined)

>  <CATEGORY>
0 (no)

$$$$
>  <COMPOUND>
COc1ccc(CN2C(=O)OC(C)(COC(C)=O)C2=O)cc1 (centres undefined)

>  <CATEGORY>
0 (no)

$$$$
>  <COMPOUND>
CC(C)c1ccc2c(c1)CC[C@H]1[C@](C)(C(=O)OCC#CCN3CCCC3)CCC[C@]21C

>  <CATEGORY>
0 (no)

$$$$
>  <COMPOUND>
O=C1/C(=C/c2c[nH]c(=O)[nH]c2=O)SC(=S)N1Cc1ccccc1

>  <CATEGORY>
0 (no)

$$$$
>  <COMPOUND>
Brc1ccc(Nc2nc(Nc3cnc4ccccc4c3)c3[nH]cnc3n2)cc1

>  <CATEGORY>
0 (no)

$$$$
>  <COMPOUND>
C=CC(=O)Nc1cccc(Oc2nccc(Nc3nnc(-c4ccc(Br)cc4)s3)n2)c1

>  <CATEGORY>
0 (no)

$$$$
>  <COMPOUND>
COc1cc2c(c(OC)c1OC)C(=O)CC(c1cccc(C(=O)Nc3ccccc3Br)c1)O2 (centres undefined)

>  <CATEGORY>
0 (no)

$$$$
>  <COMPOUND>
CC1(C)CC[C@]23CC[C@]4(C)[C@H](CC[C@@H]5[C@@]6(C)C/C(=C/O)C(=O)C(C)(C)[C@@H]6CC[C@]54C)[C@H]2[C@H]1OC3

>  <CATEGORY>
0 (no)

$$$$
>  <COMPOUND>
CCCCCCCCn1ccc2cc(NC(=O)CN3CCN(c4cc(C)nc(Cl)n4)CC3)ccc21

>  <CATEGORY>
0 (no)

$$$$
>  <COMPOUND>
O=C(Nc1cc(Cl)ccc1O)c1ccccc1Nc1ccnc(C(F)(F)F)c1

>  <CATEGORY>
0 (no)

$$$$
>  <COMPOUND>
Cc1ccc2c(c1)sc1nc(-c3c[nH]c4ccccc34)c(Nc3ccccc3)n12

>  <CATEGORY>
0 (no)

$$$$
>  <COMPOUND>
O=C1/C(=C/c2ccc(Cl)cc2)CN(C(=O)C(Cl)Cl)C/C1=C\c1ccc(Cl)cc1

>  <CATEGORY>
1 (yes)

$$$$
>  <COMPOUND>
ClC(Cl)c1nc(-c2ccccc2)n2nc(-c3ccccc3)cc2n1

>  <CATEGORY>
1 (yes)

$$$$
>  <COMPOUND>
O=C1CCCC1[n+]1ccccc1 (centres undefined)

>  <CATEGORY>
0 (no)

$$$$
>  <COMPOUND>
COc1cc2c(cc1OCCCN1CCN(C(=S)SCCC(C#N)(c3ccccc3)c3ccccc3)CC1)N=C[C@@H]1CCCN1C2=O

>  <CATEGORY>
1 (yes)

$$$$
>  <COMPOUND>
COc1ccc(/C=C/C(c2cc(OC)c(OC)c(OC)c2)n2cncn2)cc1O (centres undefined)

>  <CATEGORY>
0 (no)

$$$$
>  <COMPOUND>
CC(C)CCC[C@@H](C)[C@H]1CC[C@H]2[C@@H]3CC=C4c5sc(Nc6cc(C(F)(F)F)cc(C(F)(F)F)c6)nc5CC[C@]4(C)[C@H]3CC[C@]12C

>  <CATEGORY>
0 (no)

$$$$
>  <COMPOUND>
Nc1ccc(Br)cc1C(F)(F)F

>  <CATEGORY>
0 (no)

$$$$
>  <COMPOUND>
Nc1[nH]nc2nc(-c3ccccc3)n3c4ccccc4nc3c12

>  <CATEGORY>
0 (no)

$$$$

---

Quick reference: growth of the listed items.
test system: HOP-62 NSCLC; experiment: NCI-60 one-dose screen, 48 h (100 = growth as untreated, 0 = no growth, -100 = all killed); conditions: 10 µM unless noted
The panel holds about 83,000 compounds, 20% with a hit somewhere; the sample as a whole holds those more often.

>  <COMPOUND>
C=C1C(=O)O[C@H]2[C@H]1CC/C(COC(=O)NCc1ccc(Cn3c(=O)sn(-c4ccc(I)cc4)c3=O)cc1)=C\CC[C@@]1(C)O[C@@H]21

>  <growth (%)>
97.8

$$$$
>  <COMPOUND>
CC12OC(CC(O)C1O)n1c3ccccc3c3c4c(c5c6ccccc6n2c5c31)C(=O)N(CCN1CCCC1)C4=O (centres undefined)

>  <growth (%)>
2.4

$$$$
>  <COMPOUND>
CCCCCCCCn1ccc2cc(NC(=O)CN=[N+]=[N-])ccc21

>  <growth (%)>
114

$$$$
>  <COMPOUND>
Cc1cc(O)c(=O)cc2c1C[C@H]1CC(C)(C)/C=C/C[C@]3(C)Oc4cc(=O)c(O)cc(C)c4C[C@H]3C[C@H](O)[C@@]1(C)O2

>  <growth (%)>
0.636

$$$$
>  <COMPOUND>
COc1cc2c(cc1OCCCN1CCN(C(=S)SCCC(C#N)(c3ccccc3)c3ccccc3)CC1)N=C[C@@H]1CCCN1C2=O

>  <growth (%)>
1.76

$$$$
>  <COMPOUND>
Nc1nc2ccccc2c2c(=O)c3cc(Cl)ccc3sc12

>  <growth (%)>
89.7

$$$$
>  <COMPOUND>
CCn1cc(Cc2cc(C(=O)Nc3cc4cc(OC)c(OC)cc4c(C)n3)ccc2Cl)cn1

>  <growth (%)>
39.8

$$$$
>  <COMPOUND>
c1ccc(Nc2nc3c(s2)CCc2c[nH]cc2-3)nc1

>  <growth (%)>
92.7

$$$$
>  <COMPOUND>
Cc1oc(-c2ccc(Cl)cc2)nc1C1=NN(C(=O)c2ccncc2)C(c2ccccc2)C1 (centres undefined)

>  <growth (%)>
107

$$$$
